# experiment: Enzyme thermostability in cleared E. coli lysates incubated at 22° C.
# Assay type: biochemical
# condition: then 100 μM luciferin
recordedEndpoint: enzyme stability relative to unmodified parental luciferase

molecule	testResult
T99P: nnLuz luciferase variant with single amino acid substitution T99P (protein, UniProt A0A3G9JYH7 1-267, looked up, variant T99P) Luciferase: MRINISLSSLFERLSKLSSRSIAITCGVVLASAIAFPIIRRDYQTFLEVGPSYAPQNFRGYIIVCVLSLFRQEQKGLAIYDRLPEKRRWLADLPFREGPRPSITSHIIQRQRTQLVDQEFATRELIDKVIPRVQARHTDKTFLSTSKFEFHAKAIFLLPSIPINDPLNIPSHDTVRRTKREIAHMHDYHDCTLHLALAAQDGKEVLKKGWGQRHPLAGPGVPGPPTEWTFLYAPRNEEEARVVEMIVEASIGYMTNDPAGKIVENAK	more stable
A199P: nnLuz luciferase variant with single amino acid substitution A199P (protein, listed as Neonothopanus nambi) MRINISLSSLFERLSKLSSRSIAITCGVVLASAIAFPIIRRDYQTFLEVGPSYAPQNFRGYIIVCVLSLFRQEQKGLAIYDRLPEKRRWLADLPFREGTRPSITSHIIQRQRTQLVDQEFATRELIDKVIPRVQARHTDKTFLSTSKFEFHAKAIFLLPSIPINDPLNIPSHDTVRRTKREIAHMHDYHDCTLHLALAPQDGKEVLKKGWGQRHPLAGPGVPGPPTEWTFLYAPRNEEEARVVEMIVEASIGYMTNDPAGKIVENAK	more stable
T192S: nnLuz luciferase variant with single amino acid substitution T192S (protein, listed as Neonothopanus nambi) MRINISLSSLFERLSKLSSRSIAITCGVVLASAIAFPIIRRDYQTFLEVGPSYAPQNFRGYIIVCVLSLFRQEQKGLAIYDRLPEKRRWLADLPFREGTRPSITSHIIQRQRTQLVDQEFATRELIDKVIPRVQARHTDKTFLSTSKFEFHAKAIFLLPSIPINDPLNIPSHDTVRRTKREIAHMHDYHDCSLHLALAAQDGKEVLKKGWGQRHPLAGPGVPGPPTEWTFLYAPRNEEEARVVEMIVEASIGYMTNDPAGKIVENAK	more stable
